- target-or-system: MAP kinase-activated protein kinase 5 (Homo sapiens) (UniProt Q8IW41);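 further: mean inhibition of PRAK measured in the GSK PKIS screen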
- Sequence (whole entry): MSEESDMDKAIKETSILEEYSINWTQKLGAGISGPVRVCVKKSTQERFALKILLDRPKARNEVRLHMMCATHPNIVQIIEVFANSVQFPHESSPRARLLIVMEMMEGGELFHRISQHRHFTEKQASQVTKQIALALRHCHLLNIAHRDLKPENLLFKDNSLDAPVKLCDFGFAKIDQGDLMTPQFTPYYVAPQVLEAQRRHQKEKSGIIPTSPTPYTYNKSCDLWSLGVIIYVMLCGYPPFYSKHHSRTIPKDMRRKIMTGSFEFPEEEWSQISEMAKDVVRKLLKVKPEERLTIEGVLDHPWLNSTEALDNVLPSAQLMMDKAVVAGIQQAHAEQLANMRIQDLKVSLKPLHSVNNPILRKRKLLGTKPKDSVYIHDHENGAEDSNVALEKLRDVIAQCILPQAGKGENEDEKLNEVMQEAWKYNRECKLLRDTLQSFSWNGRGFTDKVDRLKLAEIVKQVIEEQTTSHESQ
- measurement-conditions: at 1 µM
reported-endpoint: inhibition (%)
Numbers only; they are read as %.

{"columns": ["smiles-representation", "unit-annotation", "inhibition"],
 "data": [
  ["c1cnn2ncc(-c3ccnc(Nc4ccc5c(c4)OCCO5)n3)c2c1", "%", 2.58],
  ["Cn1cc(C=C2C(=O)Nc3cccnc32)c2ccccc21", "%", 1.48],
  ["COc1ccc(COc2ccc(Cc3cnc(N)nc3N)cc2OC)cc1", "%", -1.74],
  ["COc1cc2ncn(-c3cc(O[C@H](C)c4ccccc4Cl)c(C(N)=O)s3)c2cc1OC", "%", 4.22],
  ["CS(=O)(=O)CCN(CC#N)Cc1ccc(-c2ccc3ncnc(Nc4ccc(OCc5cccc(F)c5)c(Cl)c4)c3c2)o1", "%", 1.23]
]}

# inhibition (compound: COc1cc(C=NNc2ncnc3c2cnn3-c2ccccc2)ccc1O ) is -0.53

# inhibition (compound: COc1cc2ncn(-c3cc(OCc4ccccc4C(F)(F)F)c(C(N)=O)s3)c2cc1OC ) is 2.23

The reported numbers originate from ChEMBL document CHEMBL1961873.
